test system: LXRb:RXRa (NR concentration 270 nM, RXRa partner concentration 90 nM); assay: PBM binding z-score (relative to random genomic background probes); higher = stronger binding; sequences stand for … in GC…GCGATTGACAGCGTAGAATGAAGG
quantity: PBM binding z-score
Write the value as a bare number.

Recorded PBM binding z-score, per entry:
> print(dat)
                         item.sequence  reported.value
 1  AGAAAGAGGGCAATGAGTTGATAGCACGGGTGGC           0.387
 2  CCTCGCAGGACAGAAGGTCAGAGCTGTCCGCTTT            1.13
 3  CCTTACGAGTCACTGACAGGTTATAGCATTTGGA            1.29
 4  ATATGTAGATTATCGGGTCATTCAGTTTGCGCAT            2.47
 5  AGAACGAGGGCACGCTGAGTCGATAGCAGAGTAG         -0.0914
 6  CTCGAATGGTCGGTTGAGGTGAGTATACGGATAA          -0.377
 7  ATCTCTAGGTAAAGTTCAGTGTAAGATCGATAGA            1.55
 8  TAGCCTAGGTCATTCATGGGCCAGTATAGAAAGC            2.34
 9  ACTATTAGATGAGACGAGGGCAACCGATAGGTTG          0.0232
10  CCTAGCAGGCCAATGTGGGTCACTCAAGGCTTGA            0.94

Okay, now this sequence:
Which PBM binding z-score is reported for this sequence? TCATATAAGTAATACAGGTGAAAGTCGGCATCTA
1.15

* * *

system: FXR:RXRa (NR concentration 270 nM, RXRa partner concentration 90 nM); assay: PBM binding z-score (relative to random genomic background probes); higher = stronger binding; sequences stand for … in GC…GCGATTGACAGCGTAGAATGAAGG
quantity: PBM binding z-score
The answer should be a number; do not append a unit.

> print(dat)
                        item.sequence  reported.value
1  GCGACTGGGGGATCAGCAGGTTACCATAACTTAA           0.383
2  GCTGCTAGGTCAACTGATGGTCCGCTAAAGCTCG            3.85
3  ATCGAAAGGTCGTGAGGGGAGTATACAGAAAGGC            5.36
4  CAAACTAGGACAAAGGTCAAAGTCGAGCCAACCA            6.31
5  ACTTACGGGTCCACGAGGTTATAGCACGCGTATA            0.87

Bench note: what PBM binding z-score did GCTTGTAGATCAAAGTTAAGAAAGACTAAGCTAA show?
-0.479

Which PBM binding z-score value belongs to AAAACGAGGGCACGCTGAGTTGATAGCAGAGTAG ?
0.97

Given the entry CCAGACACGTGAAAGGTAACTCAGTCTGGTACGC , report its measured PBM binding z-score.
-0.513

Query: PBM binding z-score; subject: GTTTGTAGATCAAGGTTAAGAAAGACTAAGCTAA
0.943

Tell me the measured PBM binding z-score of AGAACGAGGGGAATGAGTTGATAGCACGGGTGGC , please.
-0.0217

I have this sequence here, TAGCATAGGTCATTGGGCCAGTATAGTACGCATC , and I need its recorded PBM binding z-score.
6.02

PBM binding z-score for ATATGTAGGTTACAACCGGGTCATTCAGGCTATG ?
2.4

# lookup: PBM binding z-score of CCTTATGGGTCACTCCAGGTTATAGCATCGGAGT
3.67

Please look up its PBM binding z-score: TCTTGTAGATCAATAGAGGTTAAAAAAGTGCGCT
0.88

So what does the record say about PBM binding z-score for TCATATAGGTAAAGGTGAAAGTCGAACGATATGA ?
0.768

Requested read-out: PBM binding z-score. Entry: GCGACTGGGGCAAAACAGGTTACCATAAGGTTGG
0.267

For the sequence ACAGACAGGTGATGAAGGTAGCTCAGGCTATCAT , what PBM binding z-score is on record?
-0.0912
